Cited source: patent US20240391948A1

The following compounds are listed with their measured pIC50 values.
Test system: U937 cells (human monocytic cell line)
Assay: Pam2CSK4-induced TNF-α secretion inhibition in PMA-differentiated U937 cells
Assay type: cell-based
Conditions: U-937, U937 cells differentiated with PMA, read-out: TNF-α production inhibition grade (IC50)
pIC50: −log10 of the molar value.
recorded-metric: pIC50

smiles-notation	recorded-metric	obs-value
CC[C@H]1[C@@H](O)[C@@H]2[C@H](CC[C@]3(C)[C@@H]([C@H](C)CCC(=O)N4CCC[C@H](S(=O)(=O)O)C4)CC[C@@H]23)[C@@]2(C)CC[C@@H](O)C[C@@H]12	pIC50	5.70 to 6.00
C[C@H](CCC(=O)N(CCN(C)C)CCS(=O)(=O)O)[C@H]1CC[C@H]2[C@@H]3CC[C@@H]4C[C@H](O)CC[C@]4(C)[C@H]3C[C@H](O)[C@]12C	pIC50	> 6.30
C[C@H](CCC(=O)N[C@@H](CS(=O)(=O)O)c1ccccc1)[C@H]1CC[C@H]2[C@@H]3CC[C@@H]4CC(=O)CC[C@]4(C)[C@H]3CC[C@]12C	pIC50	5.70 to 6.00
C[C@H](CCC(=O)N[C@@H]1CCCC[C@@H]1S(=O)(=O)O)[C@H]1CC[C@H]2[C@@H]3CC[C@@H]4C[C@H](O)CC[C@]4(C)[C@H]3CC[C@]12C	pIC50	> 6.30
CC[C@H]1[C@@H](O)[C@@H]2[C@H](CC[C@]3(C)[C@@H]([C@H](C)CCC(=O)NCCCO)CC[C@@H]23)[C@@]2(C)CC[C@@H](O)C[C@@H]12	pIC50	≤ 5.70
C[C@H](CCC(=O)N1CCC[C@@H](S(=O)(=O)O)C1)[C@H]1CC[C@H]2[C@@H]3CC[C@@H]4C[C@H](O)CC[C@]4(C)[C@H]3C[C@H](O)[C@]12C	pIC50	6.00 to 6.30
C[C@H](CCC(=O)N(C)CCS(=O)(=O)O)[C@H]1CC[C@H]2[C@@H]3CC[C@@H]4CC(=O)CC[C@]4(C)[C@H]3CC[C@]12C	pIC50	5.70 to 6.00
C[C@H](CCC(=O)N(CCO)CCS(=O)(=O)O)[C@H]1CC[C@H]2[C@@H]3CC[C@@H]4CC(=O)CC[C@]4(C)[C@H]3CC[C@]12C	pIC50	6.00 to 6.30
CC[C@H]1[C@@H](O)[C@@H]2[C@H](CC[C@]3(C)[C@@H]([C@H](C)CCC(=O)N[C@@H](C)CS(=O)(=O)O)CC[C@@H]23)[C@@]2(C)CC[C@@H](O)C[C@@H]12	pIC50	5.70 to 6.00
C[C@H](CCC(=O)N1CC[C@H](S(=O)(=O)O)C1)[C@H]1CC[C@H]2[C@@H]3CC[C@@H]4CC(=O)CC[C@]4(C)[C@H]3CC[C@]12C	pIC50	6.00 to 6.30
CC[C@H]1[C@@H](O)[C@@H]2[C@H](C[C@H](O)[C@]3(C)[C@@H]([C@H](C)CCC(=O)NC4(CS(=O)(=O)O)CC4)CC[C@@H]23)[C@@]2(C)CC[C@@H](O)C[C@@H]12	pIC50	≤ 5.70
CC(C)C[C@@H](CS(=O)(=O)O)NC(=O)CC[C@@H](C)[C@H]1CC[C@H]2[C@@H]3CC[C@@H]4CC(=O)CC[C@]4(C)[C@H]3CC[C@]12C	pIC50	6.00 to 6.30
CC[C@H]1[C@@H](O)[C@@H]2[C@H](CC[C@]3(C)[C@@H]([C@H](C)CCC(=O)N[C@H]4CCCC[C@H]4S(=O)(=O)O)CC[C@@H]23)[C@@]2(C)CC[C@@H](O)C[C@@H]12	pIC50	≤ 5.70
C[C@H](CCC(=O)N[C@@H](CO)CS(=O)(=O)O)[C@H]1CC[C@H]2[C@@H]3CC[C@@H]4C[C@H](O)CC[C@]4(C)[C@H]3CC[C@]12C	pIC50	6.00 to 6.30
C[C@H](CCC(=O)N[C@H]1CCCC[C@H]1S(=O)(=O)O)[C@H]1CC[C@H]2[C@@H]3CC[C@@H]4C[C@H](O)CC[C@]4(C)[C@H]3CC[C@]12C	pIC50	6.00 to 6.30
C[C@H](CCC(=O)N[C@H](Cc1ccccc1)CS(=O)(=O)O)[C@H]1CC[C@H]2[C@@H]3CC[C@@H]4C[C@H](O)CC[C@]4(C)[C@H]3CC[C@]12C	pIC50	> 6.30
C[C@H](CCC(=O)NCCC(=O)O)[C@H]1CC[C@H]2[C@@H]3CC[C@@H]4CC(=O)CC[C@]4(C)[C@H]3CC[C@]12C	pIC50	5.70 to 6.00
C[C@H](CCC(=O)N(CCS(=O)(=O)O)Cc1cccnc1)[C@H]1CC[C@H]2[C@@H]3[C@H](O)C[C@@H]4C[C@H](O)CC[C@]4(C)[C@H]3C[C@H](O)[C@]12C	pIC50	6.00 to 6.30
C[C@H](CCC(=O)N[C@H](CS(=O)(=O)O)c1ccccc1)[C@H]1CC[C@H]2[C@@H]3CC[C@@H]4C[C@H](O)CC[C@]4(C)[C@H]3CC[C@]12C	pIC50	> 6.30
